System: rodent lifetime carcinogenesis bioassay, tumor incidence TD50
Test: carcinogenic potency in animals, long-term in vivo studies, CPDB compilation (AID 1745844)
Conditions: rat; strain Fischer 344; males; in feed; site: all sites; lesion: mesothelioma; dosed 91 weeks; study length 103 weeks
ASSAY_ENDPOINT: TD50 (mg/kg/day)
Only the number, expressed in mg/kg/day, is required.

Reported TD50, molecule `Cc1ccc(N)cc1N` : ____
6.81

* * *

Test system: rodent lifetime carcinogenesis bioassay, tumor incidence TD50
Assay: carcinogenic potency in animals, long-term in vivo studies, CPDB compilation (AID 1745844)
Conditions: rat; strain Mongrel; both sexes; by gavage; site: any site (literature study); lesion: several types; types named in the paper; dosed 95 weeks; study length 104 weeks
ASSAY_ENDPOINT: TD50

Reported TD50, molecule `S=C([S-])NCCNC(=S)[S-].[Zn+2]` : ____
255 mg/kg/day

Reported TD50, molecule `S=C([S-])NCCNC(=S)[S-].[Mn+2]` : ____
157 mg/kg/day

These measurements were taken from PubChem BioAssay AID1745844.
